experimentalSystem: SHC1 (Homo sapiens)
Construct: made in house; host or cells: HEK293 (transient transfection), unpurified extract
Sequence (P29353 1-583): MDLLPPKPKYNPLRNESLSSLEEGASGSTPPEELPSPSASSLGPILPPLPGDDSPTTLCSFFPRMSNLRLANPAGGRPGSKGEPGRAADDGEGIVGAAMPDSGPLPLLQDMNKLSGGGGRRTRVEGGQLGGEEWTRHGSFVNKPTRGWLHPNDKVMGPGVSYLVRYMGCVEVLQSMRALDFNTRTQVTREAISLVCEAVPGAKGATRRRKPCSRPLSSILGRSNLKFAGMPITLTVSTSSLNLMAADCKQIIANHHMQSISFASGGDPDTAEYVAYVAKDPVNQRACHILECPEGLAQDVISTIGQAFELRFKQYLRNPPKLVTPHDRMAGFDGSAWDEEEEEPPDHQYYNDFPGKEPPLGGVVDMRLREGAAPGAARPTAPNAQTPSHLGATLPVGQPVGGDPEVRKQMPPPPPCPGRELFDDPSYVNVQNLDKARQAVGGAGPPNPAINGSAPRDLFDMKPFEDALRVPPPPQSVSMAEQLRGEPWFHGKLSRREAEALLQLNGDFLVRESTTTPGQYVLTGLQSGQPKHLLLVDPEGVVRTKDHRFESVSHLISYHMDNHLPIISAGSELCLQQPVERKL
testDetails: biochemical
Type: binding
conditionParameters: read-out: percent of DMSO vehicle control
Non-standard residues stand in square brackets, D forms with d. Residues, ends and D or L forms follow the SMILES beside them. *: point of attachment. pY = N[C@@H](Cc1ccc(OP(=O)(O)O)cc1)C(=O)O; Caffeoyl = O=C(/C=C/c1ccc(O)c(O)c1)*
readout: remaining activity at 10 µM (%)
One number for each entry, in %.

Worked set:
CC(=O)N[C@@H](Cc1ccc(CP(=O)(O)O)cc1)C(=O)NC1(C(=O)N[C@@H](CC(N)=O)C(=O)NCCCc2c(O)ccc3ccccc23)CCCCC1 [CGP78850]	49.8
CC(=O)N1CC[C@H]2CC[C@@H](C(=O)N[C@@H](CCC(N)=O)C(=O)NC(c3ccccc3)c3ccccc3)N2C(=O)[C@@H](NC(=O)c2cc3cc(C(F)(F)P(=O)(O)O)ccc3[nH]2)C1 [SI-109]	112
NC(=O)CC[C@H](NC(=O)[C@@H]1CC[C@@H]2CCN(C(=O)CCCCCC#Cc3cccc4c3CN(C3CCC(=O)NC3=O)C4=O)C[C@H](NC(=O)c3cc4cc(C(F)(F)P(=O)(O)O)ccc4[nH]3)C(=O)N21)C(=O)NC(c1ccccc1)c1ccccc1 (stereo partly shown) [SD-36]	62

Ask | Please state recorded remaining activity at 10 µM (tested on SHC1 (Homo sapiens)) of CC[C@H](C)[C@H](NC(=O)[C@H](CCC(=O)O)NC(=O)[C@H](CCC(=O)O)NC(=O)[C@H](Cc1ccc(OP(=O)(O)O)cc1)NC(=O)/C=C/c1ccc(O)c(O)c1)C(=O)N[C@@H](CCC(=O)O)C(=O)O [Caffeic acid-pYEEIE] (Caffeoyl-[pY]EEIE-OH)
Reply | 0

###

experimentalSystem: GADS (Homo sapiens)
Construct: the DNA-tagged SH2 domain concentrations used in this study were <0.1 nM; made in house; host or cells: HEK293 (transient transfection; unpurified extract)
testDetails: biochemical
Type: binding
conditionParameters: primary screen, 10 μM; read-out: percent of DMSO vehicle control
Field: remaining activity at 10 µM. Provide a value for each of the compounds that follow.
Give bare numbers, in %.

O=C(CCl)Nc1cccc(CNC(=O)[C@H](Cc2ccc(OP(=O)(O)O)cc2)NC(=O)Cc2ccc(F)cc2)c1 [MN551]	42.9
C/C(=C\C(=O)N[C@H](C(=O)N1CCC[C@H]1C(=O)N(c1ccccc1)c1ccc(I)cc1)C(C)(C)C)c1ccc(OP(=O)(O)O)cc1 [STAT6-IN-1]	9.6

Report remaining activity at 10 µM for every entry below.
1. O=C(COc1ccc2cc(C(=O)Nc3ccccc3)ccc2c1)NCc1ccc(OP(=O)(O)O)c(OP(=O)(O)O)c1 [Stafib-1]
2. CC(C)(C)[C@H](NC(=O)/C=C/c1ccc(OP(=O)(O)O)cc1)C(=O)N1CCC[C@H]1C(=O)N(c1ccccc1)c1ccc(I)cc1 [STAT6-IN-3]

Reply |
1: 51.9; 2: 76.5

###

experimentalSystem: GADS (Homo sapiens, UniProt O75791)
Construct: the DNA-tagged SH2 domain concentrations used in this study were <0.1 nM; made in house; host or cells: HEK293 (transient transfection; unpurified extract)
Sequence (O75791 58-149 limits assumed): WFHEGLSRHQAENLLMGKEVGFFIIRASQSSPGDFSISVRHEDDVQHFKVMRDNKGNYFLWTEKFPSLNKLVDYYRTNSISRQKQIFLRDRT
testDetails: biochemical
Assay type: binding
conditionParameters: dose-response; read-out: KD
readout: pKd
One number for each entry, as −log10 of the molar value.

Ask | Please state recorded pKd (tested on GADS (Homo sapiens, UniProt O75791)) of "C/C(=C\C(=O)N[C@H](C(=O)N1CCC[C@H]1C(=O)N(c1ccccc1)c1ccc(I)cc1)C(C)(C)C)c1ccc(OP(=O)(O)O)cc1"
Reply | 5.62

###

experimentalSystem: PTPN11(SH2dom.C-term.) (Homo sapiens, UniProt Q06124)
Construct: SH2dom.C-term. denotes SH2 domain closest to C-terminus of protein; made in house; host or cells: HEK293 (transient transfection, unpurified extract)
Sequence (Q06124 112-216 limits assumed): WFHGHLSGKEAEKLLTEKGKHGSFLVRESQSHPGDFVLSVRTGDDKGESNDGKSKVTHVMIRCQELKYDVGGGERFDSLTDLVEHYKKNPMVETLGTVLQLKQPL
testDetails: biochemical
Assay type: binding
conditionParameters: dose-response; read-out: KD
readout: Kd (µM)
One number for each entry, in µM.

Ask | Give its Kd value. Item: "C/C(=C\C(=O)N[C@H](C(=O)N1CCC[C@H]1C(=O)N(c1ccccc1)c1ccc(I)cc1)C(C)(C)C)c1ccc(OP(=O)(O)O)cc1"
Reply | 1.06

###

experimentalSystem: PIK3R3(SH2dom.N-term.) (Homo sapiens, UniProt Q92569)
Construct: SH2dom.N-term. denotes SH2 domain closest to N-terminus of protein; made in house; host or cells: HEK293 (transient transfection, unpurified extract)
testDetails: biochemical
Type: binding
conditionParameters: read-out: percent of DMSO vehicle control
Non-standard residues stand in square brackets, D forms with d. Residues, ends and D or L forms follow the SMILES beside them. *: point of attachment. pY = N[C@@H](Cc1ccc(OP(=O)(O)O)cc1)C(=O)O; Caffeoyl = O=C(/C=C/c1ccc(O)c(O)c1)*
readout: remaining activity at 10 µM (%)
Numbers only, in %.

Worked set:
NC(=O)CC[C@H](NC(=O)[C@@H]1CC[C@@H]2CCN(C(=O)CCCCCC#Cc3cccc4c3CN(C3CCC(=O)NC3=O)C4=O)C[C@H](NC(=O)c3cc4cc(C(F)(F)P(=O)(O)O)ccc4[nH]3)C(=O)N21)C(=O)NC(c1ccccc1)c1ccccc1 (stereo partly shown)	111
CC[C@H](C)[C@H](NC(=O)[C@H](CCC(=O)O)NC(=O)[C@H](CCC(=O)O)NC(=O)[C@H](Cc1ccc(OP(=O)(O)O)cc1)NC(=O)/C=C/c1ccc(O)c(O)c1)C(=O)N[C@@H](CCC(=O)O)C(=O)O [Caffeic acid-pYEEIE] (Caffeoyl-[pY]EEIE-OH)	0.6
CC(=O)N[C@@H](Cc1ccc(CP(=O)(O)O)cc1)C(=O)NC1(C(=O)N[C@@H](CC(N)=O)C(=O)NCCCc2c(O)ccc3ccccc23)CCCCC1	111

Ask | Please state recorded remaining activity at 10 µM (tested on PIK3R3(SH2dom.N-term.) (Homo sapiens, UniProt Q92569)) of "CC(=O)N1CC[C@H]2CC[C@@H](C(=O)N[C@@H](CCC(N)=O)C(=O)NC(c3ccccc3)c3ccccc3)N2C(=O)[C@@H](NC(=O)c2cc3cc(C(F)(F)P(=O)(O)O)ccc3[nH]2)C1"
Reply | 142

###

Field: remaining activity at 10 µM. Provide a value for each of the compounds that follow.
experimentalSystem: SOCS3 (Homo sapiens, UniProt O14543)
Construct: made in house; host or cells: HEK293 (transient transfection), unpurified extract
Sequence (O14543 whole entry): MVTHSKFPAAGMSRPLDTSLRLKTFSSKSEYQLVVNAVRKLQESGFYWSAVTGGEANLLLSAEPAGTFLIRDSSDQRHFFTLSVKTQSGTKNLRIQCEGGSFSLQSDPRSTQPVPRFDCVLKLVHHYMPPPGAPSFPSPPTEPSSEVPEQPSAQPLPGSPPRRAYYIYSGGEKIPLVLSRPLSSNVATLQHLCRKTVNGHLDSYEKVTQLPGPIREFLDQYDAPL
testDetails: biochemical
Type: binding
conditionParameters: primary screen, 10 μM; read-out: percent of DMSO vehicle control
Give bare numbers, in %.

O=C(CCl)Nc1cccc(CNC(=O)[C@H](Cc2ccc(OP(=O)(O)O)cc2)NC(=O)Cc2ccc(F)cc2)c1	24.4
O=C(COc1ccc2cc(C(=O)Nc3ccccc3)ccc2c1)NCc1ccc(OP(=O)(O)O)c(OP(=O)(O)O)c1	72.7
C/C(=C\C(=O)N[C@H](C(=O)N1CCC[C@H]1C(=O)N(c1ccccc1)c1ccc(I)cc1)C(C)(C)C)c1ccc(OP(=O)(O)O)cc1	39.3

Ask | Give its remaining activity at 10 µM value. Item: "CC(C)(C)[C@H](NC(=O)/C=C/c1ccc(OP(=O)(O)O)cc1)C(=O)N1CCC[C@H]1C(=O)N(c1ccccc1)c1ccc(I)cc1"
Reply | 52.6

###

experimentalSystem: STAT6 (Homo sapiens)
Construct: made in house; host or cells: HEK293 (transient transfection), unpurified extract
Sequence (P42226 whole entry): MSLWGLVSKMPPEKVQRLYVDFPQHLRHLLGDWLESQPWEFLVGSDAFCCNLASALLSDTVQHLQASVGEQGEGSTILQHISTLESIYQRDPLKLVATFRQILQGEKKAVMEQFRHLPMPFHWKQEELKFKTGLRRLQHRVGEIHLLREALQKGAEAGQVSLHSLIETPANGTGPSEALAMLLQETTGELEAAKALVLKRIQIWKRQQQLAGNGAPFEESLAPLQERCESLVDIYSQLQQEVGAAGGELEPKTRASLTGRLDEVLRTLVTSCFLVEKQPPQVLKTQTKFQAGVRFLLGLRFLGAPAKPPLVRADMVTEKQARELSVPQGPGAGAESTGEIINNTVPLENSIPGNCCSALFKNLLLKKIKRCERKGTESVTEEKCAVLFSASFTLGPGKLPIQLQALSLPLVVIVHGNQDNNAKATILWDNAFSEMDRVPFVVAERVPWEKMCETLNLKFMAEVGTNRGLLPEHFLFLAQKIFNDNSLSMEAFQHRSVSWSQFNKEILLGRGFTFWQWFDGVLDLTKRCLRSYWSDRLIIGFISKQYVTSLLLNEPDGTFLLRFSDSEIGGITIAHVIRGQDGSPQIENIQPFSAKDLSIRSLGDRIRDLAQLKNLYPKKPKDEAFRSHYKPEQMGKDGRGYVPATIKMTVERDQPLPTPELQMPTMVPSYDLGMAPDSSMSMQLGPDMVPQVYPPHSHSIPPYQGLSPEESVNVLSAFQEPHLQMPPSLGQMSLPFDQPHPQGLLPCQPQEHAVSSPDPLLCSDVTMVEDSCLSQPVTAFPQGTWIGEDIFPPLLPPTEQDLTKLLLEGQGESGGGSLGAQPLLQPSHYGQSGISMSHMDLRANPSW
testDetails: biochemical
Format: binding
Non-standard residues stand in square brackets, D forms with d. Residues, ends and D or L forms follow the SMILES beside them. pY = N[C@@H](Cc1ccc(OP(=O)(O)O)cc1)C(=O)O
readout: Kd (nM)
One number for each entry, in nM.

CC[C@H](C)[C@H](NC(=O)[C@H](CC(C)C)NC(=O)[C@H](CC(=O)O)NC(=O)[C@H](CCC(N)=O)NC(=O)[C@H](Cc1ccccc1)NC(=O)[C@@H]1CCCN1C(=O)[C@H](CCCCN)NC(=O)[C@H](Cc1ccc(OP(=O)(O)O)cc1)NC(C)=O)C(N)=O (Ac-[pY]KPFQDLI-NH2)	928

Now look at this one.
Ask | Give its Kd value. Item: CC(=O)N1CC[C@H]2CC[C@@H](C(=O)N[C@@H](CCC(N)=O)C(=O)NC(c3ccccc3)c3ccccc3)N2C(=O)[C@@H](NC(=O)c2cc3cc(C(F)(F)P(=O)(O)O)ccc3[nH]2)C1 [SI-109]
Reply | 1400
